Reference source: paper PMC12040169

Recorded measurements of viability at 28.5 h, 10 µM, one per entry
assay: in vitro; details: human, hela cells, % viability

Compound | Value units | viability at 28.5 h, 10 µM
CCn1ncc(CN2CCCC(c3cc4cccnc4[nH]3)C2)c1C (stereo not shown) | % | 96.9
O=C(Nc1cccc(N2CCNCC2)c1)C1CCCO1 (stereo not shown) [CBK004768T] | % | 93.4
Fc1cc(Br)ccc1-c1cn(-c2ccccc2)nn1 | % | 80.7
CCCC(=O)N1CCCCC1c1nn(C)cc1-c1onc(C)c1C (stereo not shown) | % | 80.5
Cc1ncccc1C(=O)N1CCN(Cc2ccccc2)CC1 | % | 97.7
O=C1CCCC[C@@H]2[C@@H](N1)[C@H](c1ccccc1)CN2Cc1ccnc2ccccc12 | % | 102
O=C(O)CCN1C(=O)c2ccc(Oc3ccc(NC(=O)c4ccc(Cl)c(Cl)c4)cc3)cc2C1=O | % | 90.6
O=C(CN1CCCC2(CCN(C(=O)Cc3c[nH]c4ccccc34)C2)C1)Nc1ncccn1 (stereo not shown) | % | 86.7
O=C1CCC(=O)N1CCOc1nccnc1N1CCN(Cc2ccc(Cl)cc2)CC1 | % | 96.1
Cn1cc(CCCNC(=O)c2cccc(CN3CCCCCC3)c2)cn1 | % | 93.7
c1c2c(cc3sc(N4CCCCC4)nc13)OCCO2 | % | 89.3
COc1ccccc1CN(Cc1cccnc1)C(=O)CCC(F)(F)F | % | 92.3
Cc1ccc(N2CCN(S(=O)(=O)c3ccc(I)cc3)CC2)c(C)c1 | % | 91.7
Nc1nc(=O)n([C@@H]2O[C@H](CO)[C@H](O)C2O)cc1I (stereo partly shown) | % | 107
CCc1nc2ccc(C(=O)NC3=NN(c4ccccc4)C(=O)C3)cn2c1N(C)C(=O)COc1ccccc1 | % | 91.3
CC1(CNS(=O)(=O)Cc2cc(F)cc(F)c2)COC1 | % | 91.3
Cn1c(C(=O)NCc2ccccc2)cc2ccccc21 | % | 81.7
Cc1ccc(C2(O)CCN(C(=O)CC3CCN(C(=O)CC4CCCCC4)CC3)C2)cc1 (stereo not shown) | % | 96.9
CCc1ccccc1NC(=S)Nc1cccc(C)n1 | % | 103

====

assay: in vitro; conditions: human, hela cells, % viability

Compound | viability at 28.5 h, 10 µM [%]
Cn1nccc1CN1CCCC(COc2ccccc2F)C1 (centres unmarked) [CBK281663] | 87.2
O=C(NC1CC1)c1ccc(-n2cccn2)c(C#Cc2cccnc2)c1 [CBK282449] | 107
COc1ccc2[nH]c(=O)c(CNc3ccc(CCc4nc5ccccc5n4C)cc3)cc2c1 [CBK286162] | 87.9
O=C(Nc1ccc(I)cc1C(=O)NCCN1CCOCC1)c1ccc(Cl)cc1Cl [CBK266157] | 100
NC(=O)C1CCN([C@H]2[C@@H]3OC[C@@H](O3)[C@@H](NCc3ccc(F)cc3)[C@@H]2O)CC1 [CBK288830] | 91.2
COCCNC(=O)C1CCCCC1C(=O)O (centres unmarked) [CBK269135] | 108
CC(=O)Nc1ccc(S(=O)(=O)NCc2ccc3[nH]c4c(c3c2)CCCC4)cc1 [CBK267122] | 87.1
CCC(=O)Nc1ccc(-n2cnc(C(=O)NCc3cccnc3)c2)nc1 [CBK288603] | 115
CSc1ncc(Cl)c(C(=O)Nc2nnc(C)s2)n1 [CBK268920] | 90.1
CCN(C)c1c(C)nc2c(OCC(=O)N(C)C)cccn12 [CBK147316] | 107
Nc1nc(=O)[nH]c2c1ncn2[C@H]1C[C@@H](O)[C@@H](CO)O1 [CBK201323] | 86
Cc1cccc(NC(=O)C(Cc2ccccc2)C(=O)Nc2cccc(C)c2)c1 [CBK266899] | 91.9
COCCC(=O)N1CCC(F)CC1 [CBK200399] | 99.1
Cc1cccc(CCNC(=O)N2CCC(Cc3cnn(C)c3)C2)c1 (centres unmarked) [CBK305137] | 110
O=C(c1cscn1)N1CCc2ccccc2C1 [CBK200342] | 96.6
Cc1cc2ncc3c(n2n1)CC1CCC3N1Cc1ccc(F)c(F)c1 (centres unmarked) [CBK284378] | 90.9
O=C(O)CNS(=O)(=O)c1ccc(-c2ccccc2)cc1 [CBK034457] | 98.9
CCOc1ccc(NC(=O)N(Cc2ccccn2)CC2CCCO2)cc1 (centres unmarked) [CBK306847] | 83.7
CCOc1ccc(-c2nc(C#N)c(NCCN3CCOCC3)o2)cc1 [CBK265867] | 112
COC(=O)c1ccc(C(=O)OC)c(NC(=O)C2CCCCC2C(=O)O)c1 (centres unmarked) [CBK265422] | 88

====

experiment: in vitro; conditions: human, hela cells, % viability
Criterion: viability at 28.5 h, 10 µM strictly under 90%. Met: 1.0. Not met: 0.0.

Molecule | Label class
O=C1COc2ccccc2C/C=C/CC2(CCN(C(=O)Cc3cccnc3)CC2)C(=O)NCCN1 | 0.0
COCCNc1nc(-c2cccc(C(N)=O)c2)cnc1N | 0.0
CCOc1cc(F)ccc1NC(=O)CC1CCN(c2nc(C)cc(C)n2)CC1 | 0.0
COc1cc(/C=N/Nc2nc(Nc3ccccc3)nc(Nc3ccccc3)n2)ccc1O | 1.0
N#Cc1ccc(CNC(=O)N2CCc3ccccc3C2)cc1 | 0.0
O=C(NCCCc1ccccn1)c1cccc(N2CCCC2=O)c1 | 1.0
CN(Cc1ccccc1)c1nccnc1-c1ccccc1Cl | 0.0
Cc1ccc(CNC(=O)CSc2nnc(-c3ccncc3)n2-c2ccccc2)cc1 | 0.0
Cc1cc(N(C)C)nc(SCc2n[nH]c(=S)o2)n1 | 0.0
c1cncc(-c2noc(-c3cc(C4CC4)[nH]n3)n2)c1 | 0.0
Cc1ccc(-c2nnc(CNC(=O)Cc3ccccc3F)o2)s1 | 1.0
Cc1ccc(NC(=O)N2CCc3ccccc3C2)cc1 | 0.0
Cc1nc(C)c(CC(=O)Nc2cccc(CN3CCCC3)c2)s1 | 0.0
COc1ccc(/C=N/NC(=O)c2cc[nH]n2)cc1CSc1nc2ccccc2s1 | 0.0
CN1C(=O)C(CC(=O)Nc2ccc(F)cc2)N(CCc2ccccc2)C1=S (centres unmarked) | 0.0
COc1cccc(/C=N/NC(=O)C(=O)NCc2ccccn2)c1 | 1.0

====

assay: in vitro; conditions: human, hela cells, % viability
Property name: viability at 28.5 h, 10 µM (%)

Compound | Observed
COc1ncc(-c2ccc(NCCn3cc[nH]c3=O)nc2)c(OC)n1 | 88.9
CN(CCOC(=O)c1cccs1)C(C)(C)C [CBK027559C] | 88.6
CC(C)(C)C(=O)NCCn1nc(-c2cccs2)oc1=O | 110
CC1CCN(CC(O)c2ccc3c(c2)CCCN3C(=O)C2CC2)CC1 (stereo not drawn) | 96.9
CC(C)(C)C1=CC2=NC3(CCC3)C3C[C@](O)(Cc4ccccc4)[C@@H](O)[C@@H]3N2O1 (stereo partly drawn) | 95.7
Cc1nnc([C@H]2CCN(Cc3ccccc3)C2)o1 | 114
Cc1nn(C)cc1-c1cncn1CCCN1CCCCC1 | 96
CN(C(=O)Cc1ccsc1)c1nc2c(s1)CCc1c-2cnn1C | 82.4
CC(C)(C)c1cc(C(C)(C)C)cc(S(=O)(=O)CCc2ccccn2)c1 | 88.4
CC(C)c1nc(NCc2nnc3n2CCC3)nc(N(C)C)n1 | 99.5
Cc1nc2ccccc2n1C(=O)c1sc2ccccc2c1Cl | 106
CC(C)OC(=O)c1cc2n(n1)C(C(F)(F)F)CC(c1cccs1)N2 (stereo not drawn) | 87.6
N#Cc1ccc(COc2ccccc2)cc1 | 96.4
Cn1cc(CCCC(=O)NC2CCCOC2)c2ccccc21 (stereo not drawn) | 81.8
O=c1cc(CSc2ccccn2)[nH]c2[nH]n(-c3ccccc3)c(=O)c12 | 92.7
O=C1CC(N2CCN(c3ccc(S(=O)(=O)N4CCOCC4)cc3)CC2)C(=O)N1Cc1ccccc1 (stereo not drawn) | 107
O=c1c(Cl)c(O)c2ccccc2n1Cc1ccccc1 | 91.2
COc1ccc(N2CCN(c3nc(OC)nc(OC)n3)CC2)cc1 | 100
O=[N+]([O-])c1ccc(-c2nc(NCc3cccnc3)c3ccccc3n2)cc1 | 100
O=C(Cn1cnc2c(cnn2-c2ccc(F)cc2)c1=O)Nc1ccc(F)cc1F | 89.3
COc1cccc(Nc2cc(-c3ccc(N4CCOCC4)cc3)ncn2)c1OC | 94.7
CN(C)CC(=O)N1CN(C(=O)c2cccc(Br)c2)C(C)(C)C1 [CBK092206C] | 97.4
c1cnc(NCc2cc3n(n2)CCN(CC2CCCC2)C3)nc1 | 87.9
Cc1cc(Cl)c(OCCNCCO)c(Br)c1 [CBK265066G] | 122
Cc1ccccc1CSCC(=O)Nc1ccc(S(=O)(=O)N2CCCCC2)cc1 | 103
Cc1cc(-c2cn3cc(C(=O)N4CCCCC4)nc3c(=O)n2C)c(C)o1 | 86.6
CC1(C(=O)O)NC(c2ccccc2O)C2C(=O)N(c3ccccc3[N+](=O)[O-])C(=O)C21 (stereo not drawn) | 107
COc1cccc(CN2CCC3(C/C=C/COc4ccccc4C(=O)NCCNC3=O)CC2)c1F | 108
COCC(=O)N1CCc2sccc2C1c1ccc(NC(=O)c2cccc(F)c2)cc1 (stereo not drawn) | 102
CCCCc1c(O)c2ccccc2n(Cc2ccccc2)c1=O | 106
CN1C(=O)COC[C@@H]1[C@H](O)c1ccc(NC(=O)C2CC2)cc1 | 83.1
CCc1nccn1CCC(=O)N1CC(OCc2ccccc2F)C1 | 88.5
CCOC(=O)Cc1nnc(-c2ccc(Cl)cc2)[nH]1 | 89.1
Cc1cccc(-n2nnnc2SC(C)C(=O)O)c1 (stereo not drawn) | 90.1
c1ccc(NCCOc2cncc(N3CCCC3)n2)cc1 | 101
COc1ccc([C@@]23CC[C@@H](NC(=O)Nc4cccc(-c5nn[nH]n5)c4)C[C@@H]2N(C)CC3)cc1OC [CBK051273T] | 87.8
COc1cccc(CNc2nccc(-n3nc(C)cc3C)n2)c1 | 96
Fc1cccc(-c2nnc(SCc3nc4ccccc4[nH]3)n2-c2ccccc2)c1 | 95.3
COc1ccc(NC(=O)CSc2nc(O)cc(-c3ccccc3)n2)cc1OC | 96.1
